# SUBJECT OF TEST: human mGlu2 receptor (Homo sapiens, UniProt Q14416)
# Construct: expressed in transfected cells; host or cells: CHO cells
# Sequence (Q14416 19-872): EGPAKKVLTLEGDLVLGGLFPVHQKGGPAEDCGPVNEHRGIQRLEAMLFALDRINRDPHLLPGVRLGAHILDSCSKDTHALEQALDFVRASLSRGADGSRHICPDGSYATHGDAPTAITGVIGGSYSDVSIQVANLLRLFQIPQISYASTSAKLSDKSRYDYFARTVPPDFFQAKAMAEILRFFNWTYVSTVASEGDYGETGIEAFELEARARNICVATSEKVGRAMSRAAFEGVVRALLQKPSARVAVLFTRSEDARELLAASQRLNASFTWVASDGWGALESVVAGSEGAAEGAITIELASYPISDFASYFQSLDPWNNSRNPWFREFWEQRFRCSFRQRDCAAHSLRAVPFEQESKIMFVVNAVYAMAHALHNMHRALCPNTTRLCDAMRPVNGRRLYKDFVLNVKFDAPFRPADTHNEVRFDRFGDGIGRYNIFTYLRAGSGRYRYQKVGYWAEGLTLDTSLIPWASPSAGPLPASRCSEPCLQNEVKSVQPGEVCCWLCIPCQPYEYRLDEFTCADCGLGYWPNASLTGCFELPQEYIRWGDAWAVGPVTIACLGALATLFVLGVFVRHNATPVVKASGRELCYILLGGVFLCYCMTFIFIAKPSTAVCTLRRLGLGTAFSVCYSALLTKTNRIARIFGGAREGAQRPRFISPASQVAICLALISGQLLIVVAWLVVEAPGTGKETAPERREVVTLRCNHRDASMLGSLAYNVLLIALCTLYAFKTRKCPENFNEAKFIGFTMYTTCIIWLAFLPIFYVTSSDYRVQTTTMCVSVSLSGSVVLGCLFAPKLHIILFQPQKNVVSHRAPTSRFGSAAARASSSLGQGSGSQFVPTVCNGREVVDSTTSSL
# METHOD: [35S]GTPγS binding assay (mGluR2 negative allosteric modulation, glutamate ~EC80 60 μM)
# Format: biochemical
# RUN CONDITIONS: membranes from CHO cells transfected with human mGlu2 receptor; glutamate ~EC80 (60 μM); pIC50 = −log IC50 (M); read-out: GTPγS-hmGluR2 anGT pIC50 (converted)
MEASURED QUANTITY: IC50 (M)
Give bare numbers, in M.

In the examples that follow, each entry is paired with its recorded IC50.
>>> numeric_result("Cc1nccc(C(=O)Nc2cnn3c2C(=O)N(c2ccc(C(F)(F)F)cc2)C[C@@H]3C)c1C [Co. No. 154]")
"6.03e-08"
>>> numeric_result("C[C@H]1CN(c2ccc(C(F)(F)F)cc2)C(=O)c2c(NC(=O)c3ncc[nH]3)cnn21 [Co. No. 80]")
"1e-07"
>>> numeric_result("Cc1cc(N)ncc1C(=O)Nc1cnn2c1C(=O)N(c1ccc(C(F)(F)F)cc1)C[C@@H]2C [Co. No. 163]")
"2.57e-09"

Your task in this section: give IC50 for each listed record.
1. COc1cc(F)cc(C(=O)Nc2cnn3c2C(=O)N(c2ccc(C(F)(F)F)cc2)C[C@@H]3C)c1 [Co. No. 17]
2. COc1cnc(C(=O)Nc2cnn3c2C(=O)N(c2ccc(C(F)(F)F)cc2)C[C@@H]3C)cn1 [Co. No. 39]
3. C[C@H]1CN(c2ccc(C(F)(F)F)c(CF)c2)C(=O)c2c(NC(=O)c3cccnc3N)cnn21 [Co. No. 210]
4. C[C@H]1CN(c2ccc(C(F)(F)F)cc2)C(=O)c2c(NC(=O)c3cnc(N)cn3)cnn21 [Co. No. 45]
5. C[C@H]1CN(c2ccc(C(F)(F)F)cc2)C(=O)c2c(NC(=O)c3cncc(F)c3)cnn21 [Co. No. 31]

1: 3.72e-09; 2: 9.33e-09; 3: 2.09e-09; 4: 1.2e-08; 5: 7.24e-09
